The origin of these recorded values is paper PMC3066128.

test-target: human α1 GlyR L127A (Homo sapiens, UniProt P23415, L155A)
Sequence (P23415 29-457 L155A): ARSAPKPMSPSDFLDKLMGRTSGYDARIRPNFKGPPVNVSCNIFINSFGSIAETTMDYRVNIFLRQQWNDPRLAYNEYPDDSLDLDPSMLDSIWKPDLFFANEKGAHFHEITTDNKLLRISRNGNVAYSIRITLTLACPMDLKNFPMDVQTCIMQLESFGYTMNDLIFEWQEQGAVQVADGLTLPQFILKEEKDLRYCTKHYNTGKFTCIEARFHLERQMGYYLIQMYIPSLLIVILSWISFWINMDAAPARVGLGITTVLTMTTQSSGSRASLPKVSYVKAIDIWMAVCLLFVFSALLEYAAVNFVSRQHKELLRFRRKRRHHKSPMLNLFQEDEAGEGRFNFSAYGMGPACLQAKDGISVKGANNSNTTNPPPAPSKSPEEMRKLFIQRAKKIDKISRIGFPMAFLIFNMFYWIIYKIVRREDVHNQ
assay-notes: cell-based
pIC50: −log10 of the molar value.
measure: pIC50

[[record]]
line_notation = "O=C1C[C@@H]2OCC=C3CN4CC[C@]56c7ccccc7N1[C@H]5[C@H]2[C@H]3C[C@H]46"
result_value = 6.42


----------
test-target: human α7 nAChR W55A (Homo sapiens, UniProt P36544, W77A)
Sequence (P36544 23-502 W77A): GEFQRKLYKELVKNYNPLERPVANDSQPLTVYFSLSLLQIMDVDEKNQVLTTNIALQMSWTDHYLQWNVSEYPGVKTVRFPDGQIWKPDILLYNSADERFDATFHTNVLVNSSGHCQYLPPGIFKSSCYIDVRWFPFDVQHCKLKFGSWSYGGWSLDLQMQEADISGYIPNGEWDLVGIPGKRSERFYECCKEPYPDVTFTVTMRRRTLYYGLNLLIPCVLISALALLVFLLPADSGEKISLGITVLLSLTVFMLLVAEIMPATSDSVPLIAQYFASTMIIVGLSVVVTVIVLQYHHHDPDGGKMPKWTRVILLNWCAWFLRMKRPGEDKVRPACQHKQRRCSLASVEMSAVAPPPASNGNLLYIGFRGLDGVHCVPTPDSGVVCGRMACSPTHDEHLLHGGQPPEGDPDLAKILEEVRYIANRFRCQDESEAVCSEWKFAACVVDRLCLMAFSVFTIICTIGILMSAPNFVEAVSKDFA
assay-notes: Two-electrode voltage clamp, α7 nAChR W55A in Xenopus oocytes
test-parameters: co-applied with EC50 acetylcholine
pIC50: −log10 of the molar value.
measure: pIC50

[[record]]
compound = "COc1cc2c3cc1Oc1cc(ccc1O)C[C@@H]1c4c(cc(OC)c(O)c4Oc4ccc(cc4)C[C@@H]3N(C)CC2)CC[N+]1(C)C [d-tubocurarine]"
result_value = 4.78


----------
test-target: human α1 GlyR I210A (Homo sapiens, UniProt P23415, I238A)
assay-notes: cell-based
pIC50: −log10 of the molar value.
measure: pIC50

[[record]]
line_notation = "O=C1C[C@@H]2OCC=C3CN4CC[C@]56c7ccccc7N1[C@H]5[C@H]2[C@H]3C[C@H]46"
result_value = 6.99


----------
test-target: human α1 GlyR A101F (Homo sapiens, UniProt P23415, A129F)
Sequence (P23415 29-457 A129F): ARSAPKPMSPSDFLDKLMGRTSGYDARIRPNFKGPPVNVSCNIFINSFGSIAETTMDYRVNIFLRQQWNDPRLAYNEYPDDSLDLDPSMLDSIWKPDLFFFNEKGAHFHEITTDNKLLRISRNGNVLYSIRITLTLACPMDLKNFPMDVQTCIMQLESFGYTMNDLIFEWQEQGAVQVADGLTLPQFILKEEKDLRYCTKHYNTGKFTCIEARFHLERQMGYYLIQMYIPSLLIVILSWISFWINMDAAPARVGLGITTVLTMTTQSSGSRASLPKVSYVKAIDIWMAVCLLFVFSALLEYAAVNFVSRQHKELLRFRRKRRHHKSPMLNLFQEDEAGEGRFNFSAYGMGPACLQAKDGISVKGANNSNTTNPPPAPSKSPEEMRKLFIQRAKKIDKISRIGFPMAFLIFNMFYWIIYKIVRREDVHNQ
assay-notes: cell-based
Text: To address this question, we performed alanine-scanning mutagenesis of the homologous residues in the human GlyR or nAChR using structure-based sequence alignments with AChBP (see Figure S1). The two-electrode voltage-clamp technique was used to measure ligand potency on wild type and mutant GlyR or nAChR expressed in Xenopus oocytes. […] One of these mutants, F207A, was previously characterized in the work from Grundzinska et al.. […]
measure: IC50 (nM)

[[record]]
compound = "O=C1C[C@@H]2OCC=C3CN4CC[C@]56c7ccccc7N1[C@H]5[C@H]2[C@H]3C[C@H]46 [strychnine]"
result_value = 583


----------
test-target: human α1 GlyR F207A (Homo sapiens, UniProt P23415, F235A)
assay-notes: cell-based
measure: IC50 (mM)

[[record]]
molecule = "O=C1C[C@@H]2OCC=C3CN4CC[C@]56c7ccccc7N1[C@H]5[C@H]2[C@H]3C[C@H]46 [strychnine]"
test_target = "human α1 GlyR F207A (Homo sapiens, UniProt P23415, F235A)"
unit_string = "mM"
result_value = 5.59


----------
test-target: human α1 GlyR S158A (Homo sapiens, UniProt P23415, S186A)
Sequence (P23415 29-457 S186A): as the sequence (P23415 29-457 L155A) above, with A127L, S158A counted along it
assay-notes: cell-based
measure: IC50 (µM)

[[record]]
molecule = "O=C1C[C@@H]2OCC=C3CN4CC[C@]56c7ccccc7N1[C@H]5[C@H]2[C@H]3C[C@H]46 [strychnine]"
result_value = 13.8


----------
test-target: human α7 nAChR (Homo sapiens)
Construct: expressed in transfected cells
assay-notes: biochemical
Type: binding
test-parameters: competition with 3H-methyllycaconitine, human α7 nAChR; read-out: Ki
measure: Ki

[[record]]
line_notation = "COc1cc2c3cc1Oc1cc(ccc1O)C[C@@H]1c4c(cc(OC)c(O)c4Oc4ccc(cc4)C[C@@H]3N(C)CC2)CC[N+]1(C)C"
test_target = "human α7 nAChR (Homo sapiens)"
measure = "Ki"
result_value = "2.98 µM"


----------
test-target: human α7 nAChR L119A (Homo sapiens, UniProt P36544, L141A)
Sequence (P36544 23-502 L141A): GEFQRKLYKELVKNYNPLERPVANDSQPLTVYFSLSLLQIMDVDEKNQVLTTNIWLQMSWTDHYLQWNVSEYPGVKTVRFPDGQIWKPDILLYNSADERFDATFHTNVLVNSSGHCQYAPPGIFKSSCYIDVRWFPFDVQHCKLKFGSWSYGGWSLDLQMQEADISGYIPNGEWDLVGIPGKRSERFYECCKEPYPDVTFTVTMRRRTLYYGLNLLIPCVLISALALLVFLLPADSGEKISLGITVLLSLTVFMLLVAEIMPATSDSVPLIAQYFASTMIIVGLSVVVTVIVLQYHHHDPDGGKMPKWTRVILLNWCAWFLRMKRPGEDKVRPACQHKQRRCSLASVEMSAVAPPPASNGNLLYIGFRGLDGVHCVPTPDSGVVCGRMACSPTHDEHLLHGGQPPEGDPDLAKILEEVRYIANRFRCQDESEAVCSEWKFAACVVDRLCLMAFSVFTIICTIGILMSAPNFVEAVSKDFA
assay-notes: Two-electrode voltage clamp, α7 nAChR L119A in Xenopus oocytes
test-parameters: co-applied with EC50 acetylcholine
pIC50: −log10 of the molar value.
measure: pIC50

[[record]]
line_notation = "COc1cc2c3cc1Oc1cc(ccc1O)C[C@@H]1c4c(cc(OC)c(O)c4Oc4ccc(cc4)C[C@@H]3N(C)CC2)CC[N+]1(C)C"
result_value = 5.04


----------
test-target: UniProt:P23415
measure: IC50

[[record]]
line_notation = "O=C1C[C@@H]2OCC=C3CN4CC[C@]56c7ccccc7N1[C@H]5[C@H]2[C@H]3C[C@H]46"
result_value = "46.8 nM"


----------
test-target: human α7 nAChR Q117A (Homo sapiens, UniProt P36544, Q139A)
assay-notes: Two-electrode voltage clamp, α7 nAChR Q117A in Xenopus oocytes
test-parameters: co-applied with EC50 acetylcholine
Source text: To address this question, we performed alanine-scanning mutagenesis of the homologous residues in the human GlyR or nAChR using structure-based sequence alignments with AChBP (see Figure S1). The two-electrode voltage-clamp technique was used to measure ligand potency on wild type and mutant GlyR or nAChR expressed in Xenopus oocytes. […] One of these mutants, F207A, was previously characterized in the work from Grundzinska et al.. […]
measure: IC50 (nM)

[[record]]
line_notation = "COc1cc2c3cc1Oc1cc(ccc1O)C[C@@H]1c4c(cc(OC)c(O)c4Oc4ccc(cc4)C[C@@H]3N(C)CC2)CC[N+]1(C)C"
measure = "IC50"
unit_string = "nM"
result_value = 2280


----------
test-target: human α7 nAChR wt (Homo sapiens, UniProt P36544)
Sequence (P36544 23-502): as the sequence (P36544 23-502 W77A) above, with A55W counted along it
assay-notes: Two-electrode voltage clamp, wild type α7 nAChR in Xenopus oocytes
test-parameters: co-applied with EC50 acetylcholine
pIC50: −log10 of the molar value.
measure: pIC50

[[record]]
line_notation = "COc1cc2c3cc1Oc1cc(ccc1O)C[C@@H]1c4c(cc(OC)c(O)c4Oc4ccc(cc4)C[C@@H]3N(C)CC2)CC[N+]1(C)C"
test_target = "human α7 nAChR wt (Homo sapiens, UniProt P36544)"
result_value = 5.92


----------
test-target: human α7 nAChR E193A (Homo sapiens, UniProt P36544, E215A)
assay-notes: Two-electrode voltage clamp, α7 nAChR E193A in Xenopus oocytes
test-parameters: co-applied with EC50 acetylcholine
measure: IC50 (µM)

[[record]]
line_notation = "COc1cc2c3cc1Oc1cc(ccc1O)C[C@@H]1c4c(cc(OC)c(O)c4Oc4ccc(cc4)C[C@@H]3N(C)CC2)CC[N+]1(C)C"
test_target = "human α7 nAChR E193A (Homo sapiens, UniProt P36544, E215A)"
unit_string = "µM"
result_value = 8.1


----------
test-target: human α7 nAChR S36A (Homo sapiens, UniProt P36544, S58A)
Sequence (P36544 23-502 S58A): as the sequence (P36544 23-502 L141A) above, with S36A, A119L counted along it
assay-notes: Two-electrode voltage clamp, α7 nAChR S36A in Xenopus oocytes
test-parameters: co-applied with EC50 acetylcholine
pIC50: −log10 of the molar value.
measure: pIC50

[[record]]
line_notation = "COc1cc2c3cc1Oc1cc(ccc1O)C[C@@H]1c4c(cc(OC)c(O)c4Oc4ccc(cc4)C[C@@H]3N(C)CC2)CC[N+]1(C)C"
measure = "pIC50"
result_value = 5.65


----------
test-target: human α7 nAChR S148A (Homo sapiens, UniProt P36544, S170A)
assay-notes: Two-electrode voltage clamp, α7 nAChR S148A in Xenopus oocytes
test-parameters: co-applied with EC50 acetylcholine
measure: IC50 (µM)

[[record]]
compound = "COc1cc2c3cc1Oc1cc(ccc1O)C[C@@H]1c4c(cc(OC)c(O)c4Oc4ccc(cc4)C[C@@H]3N(C)CC2)CC[N+]1(C)C [d-tubocurarine]"
unit_string = "µM"
result_value = 176


----------
test-target: human α7 nAChR (Homo sapiens, UniProt P36544)
Construct: expressed in transfected cells
Sequence (P36544 23-502): as the sequence (P36544 23-502 L141A) above, with A119L counted along it
assay-notes: biochemical
Type: binding
pKi: −log10 of the molar value.
measure: pKi

[[record]]
line_notation = "O=C1C[C@@H]2OCC=C3CN4CC[C@]56c7ccccc7N1[C@H]5[C@H]2[C@H]3C[C@H]46"
result_value = 5.31


----------
Measured pKi (Ls-AChBP (Lymnaea stagnalis))
pKi: −log10 of the molar value.
measure: pKi

[[record]]
compound = "COc1cc2c3cc1Oc1cc(ccc1O)C[C@@H]1c4c(cc(OC)c(O)c4Oc4ccc(cc4)C[C@@H]3N(C)CC2)CC[N+]1(C)C [d-tubocurarine]"
test_target = "Ls-AChBP (Lymnaea stagnalis)"
result_value = 6.77

[[record]]
compound = "O=C1C[C@@H]2OCC=C3CN4CC[C@]56c7ccccc7N1[C@H]5[C@H]2[C@H]3C[C@H]46 [strychnine]"
test_target = "Ls-AChBP (Lymnaea stagnalis)"
result_value = 6.65

